binding signal (plate reader) values for the binders below.
TESTED_ON: T1, oligopeptide ATYPSGHLD (SEQ ID NO: 101)
T1 construct: Synthetic peptide, part of Loop C of AQP3
T1 peptide: ATYPSGHLD
EXPERIMENT: ELISA on coated peptide
QUANTITY: binding signal (plate reader)

Antibody J (antibody, mouse IgG2a, kappa, V domains shown, also called anti AQP3 antibody J) VH: QVHLQQSGTELVKPGASVKLSCEASGYTFTSYWMHWVKQRPGQGLEWIGNINPSNGGTNYNEKFKSKATLTVDKSSSTAYMQLSSLTSEDSAVYYCARGGIYYGNYDYYAMDYWGQGTSVTVSS VL: DIVMTQAAPSVPVTPGESVSISCRSSKSLLHSNGNTYLYWFLQRPGQSPQLLIYRVSNLASGVPDRFSGSGSGTAFTLRISRVEAEDVGVYYCMQHLEYPFTFGGGTKLEIKR: 0.671
SC-F8 (IgG) (antibody, V domains shown, also called anti AQP3 antibody SC-F8) VH: QTVKESGGRLVTPGGSLTLTCTVSRFSLSNYAMTWVRQAPGKGLEWIGIINNDGISSTWYASWVKGRFTISKTSTTMDLKMTSLTTEDTATYFCARGGTSGYDIWGPGTLVTVSL VL: AQVLTQTPSPVSAAVGGTVTINCQSSPSVYKNYLSWYQQKPGQPPKLLIYGASTLASGVPSRFKGSGSGTQFTLTISDVQCDDAATYYCAGGYRGSSDIFAFGGGTEVVVK: 3.91
